System: Hep 3B
Assay: In vitro cytotoxicity, MTT assay, Hep 3B
Format: cell-based
Settings: Homo sapiens, Hep3B, 72 h, read-out: IC50 ± SD
MEASURED_ATTRIBUTE: IC50 (µM)
Response body: numeric value in µM, unit text excluded.

[[record]]
molecule = "CCc1c2c(nc3ccc(OC(=O)N4CCC(N5CCCCC5)CC4)cc13)-c1cc3c(c(=O)n1C2)COC(=O)[C@]3(O)CC"
target = "Hep 3B"
value_units = "µM"
reported_value = 49.3


Next up:
Summary for this molecule, CCc1c2c(nc3ccc(O)cc13)-c1cc3c(c(=O)n1C2)COC(=O)[C@]3(O)CC [SN38, 7-ethyl-10-hydroxycamptothecin] : IC50 is 7.74

---

Assay: Pharmacokinetics after single i.v. injection
Details: Sprague-Dawley, rat, in vivo, iv, 12 mg/kg
MEASURED_ATTRIBUTE: AUC(0-t) (ng·h/mL)
Response body: numeric value in ng·h/mL, unit text excluded.

Summary for this compound, CCc1c2c(nc3ccc(OC(=O)N4CCC(N5CCCCC5)CC4)cc13)-c1cc3c(c(=O)n1C2)COC(=O)[C@]3(O)CC [CPT-11, irinotecan] : AUC(0-t) is 67600
